Source: PubChem BioAssay AID1851

target: Cytochrome P450 2C19 (Homo sapiens) (UniProt P33261); experiment: Cytochrome panel assay with activity outcomes; conditions: recombinant CYP, pro-luciferin dealkylation, luminescence, p450-cyp2c19; series mostly up to 57.1 µM
Sequence (P33261 whole entry, looked up): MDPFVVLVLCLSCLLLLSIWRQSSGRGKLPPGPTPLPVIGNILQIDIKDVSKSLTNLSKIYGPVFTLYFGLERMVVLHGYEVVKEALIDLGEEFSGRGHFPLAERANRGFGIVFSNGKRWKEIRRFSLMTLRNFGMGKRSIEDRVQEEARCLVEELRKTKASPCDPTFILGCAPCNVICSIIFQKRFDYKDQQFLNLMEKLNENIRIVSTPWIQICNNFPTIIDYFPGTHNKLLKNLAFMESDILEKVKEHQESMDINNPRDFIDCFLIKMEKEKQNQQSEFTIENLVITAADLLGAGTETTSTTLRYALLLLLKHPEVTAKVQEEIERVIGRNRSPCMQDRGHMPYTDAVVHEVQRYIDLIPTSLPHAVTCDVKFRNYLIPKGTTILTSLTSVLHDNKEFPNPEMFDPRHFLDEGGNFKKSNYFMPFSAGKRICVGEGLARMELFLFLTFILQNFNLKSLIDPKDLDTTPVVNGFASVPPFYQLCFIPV
The whole screen tested about 16,000 compounds, of which about 5,800 (36%) were called active. Roughly 23% stayed inconclusive and do not appear here. Calls follow the shape of the dose curve; as a rule, active = well fitted curve in the direction sought with a large enough effect; inconclusive = small, poorly fitted or top-dose-only effect, or effect the other way; inactive = no such curve, though single readings can be large or run the other way. Some of the results follow.
Answer with one of the outcomes true (active), false (inactive)

STRUCTURE_STRING: C/C(=N\N=C(c1ccccc1)c1ccccc1)c1cccs1
CLASS_ASSIGNMENT: true
--
STRUCTURE_STRING: Cc1noc(C)c1-c1nc(NCc2cccs2)c2ccccc2n1
CLASS_ASSIGNMENT: false
--
STRUCTURE_STRING: Cc1ccc(C)c(-n2c(CNC(=O)c3ccco3)nnc2SCC(=O)N2CCc3ccccc32)c1
CLASS_ASSIGNMENT: false

Now for a further compound.
Record lookup: outcome of this test for "CC(C)[C@H]1C(=O)C(C(N)=O)=C(O)[C@]2(O)C(=O)C3=C(O)c4c(O)ccc(N(C)C)c4C[C@H]3C[C@@H]12" ? false
